// data source = patent US20250263489A1

Quick reference: Signal activation Emax vs IGF11-16, PathHunter of the listed items.
- target.or.test.system: IGF-1 receptor on the cells of the PathHunter IGF1R Functional Assay (DiscoverX) (UniProt P08069 31-1367)
- Sequence (P08069 31-1367): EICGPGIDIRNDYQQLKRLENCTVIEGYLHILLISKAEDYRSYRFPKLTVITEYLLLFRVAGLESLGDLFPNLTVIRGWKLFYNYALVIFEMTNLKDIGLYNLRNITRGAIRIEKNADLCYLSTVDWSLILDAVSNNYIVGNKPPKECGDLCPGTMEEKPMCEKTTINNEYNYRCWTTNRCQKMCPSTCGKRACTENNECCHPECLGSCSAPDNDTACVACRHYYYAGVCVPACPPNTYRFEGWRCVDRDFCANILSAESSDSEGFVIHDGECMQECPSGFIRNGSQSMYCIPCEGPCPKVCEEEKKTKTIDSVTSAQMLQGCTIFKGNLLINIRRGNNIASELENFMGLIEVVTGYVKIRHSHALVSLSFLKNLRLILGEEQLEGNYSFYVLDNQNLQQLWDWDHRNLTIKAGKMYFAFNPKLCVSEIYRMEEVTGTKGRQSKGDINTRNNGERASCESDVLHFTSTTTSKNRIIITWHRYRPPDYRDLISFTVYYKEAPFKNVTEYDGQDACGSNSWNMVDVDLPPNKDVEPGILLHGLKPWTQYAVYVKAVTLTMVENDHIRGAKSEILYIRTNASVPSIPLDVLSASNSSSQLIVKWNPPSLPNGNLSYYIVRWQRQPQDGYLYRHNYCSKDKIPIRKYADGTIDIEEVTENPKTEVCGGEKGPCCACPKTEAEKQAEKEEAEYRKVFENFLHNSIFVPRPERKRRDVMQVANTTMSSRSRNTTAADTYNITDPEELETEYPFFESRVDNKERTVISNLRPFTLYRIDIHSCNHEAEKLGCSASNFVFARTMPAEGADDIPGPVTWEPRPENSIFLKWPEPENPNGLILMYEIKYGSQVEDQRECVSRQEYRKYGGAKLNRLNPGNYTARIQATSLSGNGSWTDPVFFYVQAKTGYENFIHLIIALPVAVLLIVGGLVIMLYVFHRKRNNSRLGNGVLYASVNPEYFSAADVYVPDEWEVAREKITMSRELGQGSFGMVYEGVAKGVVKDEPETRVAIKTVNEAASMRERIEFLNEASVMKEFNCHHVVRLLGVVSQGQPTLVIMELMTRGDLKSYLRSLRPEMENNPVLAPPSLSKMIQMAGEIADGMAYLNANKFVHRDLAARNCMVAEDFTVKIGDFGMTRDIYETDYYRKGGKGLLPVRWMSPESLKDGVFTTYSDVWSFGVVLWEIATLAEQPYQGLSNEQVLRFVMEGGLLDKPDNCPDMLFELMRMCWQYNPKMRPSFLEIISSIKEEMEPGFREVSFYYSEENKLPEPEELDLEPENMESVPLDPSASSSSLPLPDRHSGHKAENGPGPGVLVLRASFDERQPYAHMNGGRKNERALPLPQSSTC
- procedure.text: cell-based or functional assay
endpoint: Signal activation Emax vs IGF11-16, PathHunter

>>> reported("IGF11-16 with alanine substitution of N at position 59 (CDR-H2) (antibody, mouse IgG1, V domains shown) VH: QIQLQQPGAELVKPGASVKLSCKAPGYTFTSYWMHWVKQRPGQGLEWIGETNPSNSVTAYNEKFKSKATLTVDKSSSTAYMQLSSLTSEDSAVYYCTIGRGRGFAYWGQGTLVTVSA VL: DIQMNQSPSSLSASLGDTITITCRASQNINFWLSWCQQKPGNIPKLLIYKASNLHTGVPSRFSGSGSGTDFTLTISSLQPEDIATYYCLQGQSYPYTFGGGTKLEIK")
"0.9 ratio vs IGF11-16"
>>> reported("IGF11-16 with alanine substitution of N at position 55 (CDR-H2) (antibody, mouse IgG1, V domains shown) VH: QIQLQQPGAELVKPGASVKLSCKAPGYTFTSYWMHWVKQRPGQGLEWIGETNPSASVTNYNEKFKSKATLTVDKSSSTAYMQLSSLTSEDSAVYYCTIGRGRGFAYWGQGTLVTVSA VL: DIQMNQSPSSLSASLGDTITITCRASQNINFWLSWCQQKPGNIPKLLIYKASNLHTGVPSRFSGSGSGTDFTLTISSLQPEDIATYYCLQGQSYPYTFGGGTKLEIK")
"1 ratio vs IGF11-16"
>>> reported("IGF11-16 with alanine substitution of R at position 102 (CDR-H3) (antibody, mouse IgG1, V domains shown) VH: QIQLQQPGAELVKPGASVKLSCKAPGYTFTSYWMHWVKQRPGQGLEWIGETNPSNSVTNYNEKFKSKATLTVDKSSSTAYMQLSSLTSEDSAVYYCTIGRGAGFAYWGQGTLVTVSA VL: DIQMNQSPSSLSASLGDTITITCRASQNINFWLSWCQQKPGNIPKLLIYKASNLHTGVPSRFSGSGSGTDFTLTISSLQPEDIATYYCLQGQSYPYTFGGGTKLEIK")
"4.8 ratio vs IGF11-16"
